The reported measurements were obtained from patent US20250092016A1.

- assay target: SARS-CoV-2 main protease (M^pro) (Severe acute respiratory syndrome coronavirus 2, UniProt P0DTD1)
- test description: Rapid-Fire MS Biochemical Assay measuring Mpro activity (5 nM Mpro)
- condition notes: Table 1B, Mpro inhibition, 5 μM substrate peptide, 120 min, read-out: Rapid-Fire Assay IC50
This section presents molecules with their documented IC50 values.

molecule="N#C[C@@H]1CN(c2cnc(C(F)(F)F)c(F)c2)C(=O)N1c1cncc2ccccc12 (single isomer, unassigned) [Compound 77b]" observed_property=IC50 result="20 to 200 nM"
molecule="N#C[C@@H]1CN(c2ccc(F)nc2)C(=O)N1c1cncc2ccccc12 (single isomer, unassigned) [Compound 55b]" observed_property=IC50 result="> 1000 nM"

Task: Look up and report measured IC50 for this entry: N#C[C@H]1CN(c2cc(OC(F)F)ccc2F)C(=O)N1c1cncc2ccccc12 (single isomer, unassigned) [Compound 59a]
Output: 20 to 200 nM

Task: Look up and report measured IC50 for this entry: N#C[C@@H]1CN(c2cc(Cl)cnn2)C(=O)N1c1cncc2ccccc12 (single isomer, unassigned) [Compound 54b]
Output: 200 to 1000 nM

Task: Look up and report measured IC50 for this entry: C[C@H]1C[C@H](N2C[C@H](C#N)N(c3cncc4ccccc34)C2=O)C1 [Compound 120b]
Output: 20 to 200 nM

Task: Look up and report measured IC50 for this entry: N#Cc1ccc(C(F)(F)F)cc1N1CC(C#N)N(c2cncc3ccccc23)C1=O (racemic)
Output: < 20 nM

Task: Look up and report measured IC50 for this entry: N#CC1CN(C2CN(C3CC3)C2)C(=O)N1c1cncc2ccccc12 (racemic)
Output: 20 to 200 nM

Task: Look up and report measured IC50 for this entry: N#C[C@H]1CN(c2ccc(OC(F)F)cc2F)C(=O)N1c1cncc2ccccc12 (single isomer, unassigned) [Compound 83a]
Output: 20 to 200 nM

Task: Look up and report measured IC50 for this entry: N#C[C@@H]1CN(C2CC3(CCC3)C2)C(=O)N1c1cncc2ccccc12 (single isomer, unassigned) [Compound 122b]
Output: > 1000 nM

Task: Look up and report measured IC50 for this entry: N#C[C@@H]1CN(c2ccccc2F)C(=O)N1c1cncc2ccccc12 (single isomer, unassigned) [Compound 56b]
Output: > 1000 nM

Task: Look up and report measured IC50 for this entry: Cc1ccc(C(F)(F)F)cc1N1C[C@@H](C#N)N(c2cncc3ccccc23)C1=O (single isomer, unassigned) [Compound 24b]
Output: > 1000 nM

Task: Look up and report measured IC50 for this entry: Cc1cnc(C(F)(F)F)cc1N1C[C@@H](C#N)N(c2cncc3ccccc23)C1=O (single isomer, unassigned) [Compound 70b]
Output: > 1000 nM
